Could you please report measured EC50 for the items listed next?
# Tested on: HBsAg
# Measurement notes: HBsAg assay: inhibition of HBsAg in HepG2.2.15 cells (chemiluminescence immunoassay of supernatant)
# Type: cell-based, hepatitis B virus
# Experimental conditions: read-out: sAg EC50; HepG2.2.15 cells; HBsAg in supernatant at day 6 after exposure to compound; 0.5% DMSO
Numbers only, in nM.

Consider the worked cases shown below.
> print(dat)
                                   compound  recorded.number
1  O[C@H]1CCN(c2cc(C3CC3c3cnc(-c4ncccn4)nc3)cc(Cl)c2F)C1 (single isomer, unassigned) [Example 121]               11
2  Fc1cc(Cl)cc(C2CC2c2cnc(-c3ncccn3)nc2)c1 (single isomer, unassigned) [Example 119]              330
3  COCCOc1ccc(C2CC2c2cnc(-c3ncccn3)nc2)cc1F (single isomer, unassigned)              150
4  COCCOc1cc(C2CC2c2cnc(-c3ncccn3)nc2)ccc1F (single isomer, unassigned) [Example 22]               59

Hi! Can you tell me EC50 for each of these compounds?
1. Fc1cc(C2CC2c2cnc(-c3ncccn3)nc2)cc(N2CC(c3ccccc3)C2)c1F (single isomer, unassigned) [Example 255]
2. COCCCn1cc2c(F)cc(C3CC3c3cnc(-c4ncccn4)nc3)cc2n1 (single isomer, unassigned) [Example 269]
3. Cc1cc(C2CC2c2cnc(-c3ncccn3)nc2)cc(OCC2CC2)c1Cl (single isomer, unassigned) [Example 49]

780
46
170

---

# Tested on: HBsAg
# Measurement notes: HBsAg assay: inhibition of HBsAg in HepG2.2.15 cells (chemiluminescence immunoassay of supernatant)
# Assay type: cell-based, hepatitis B virus
# Experimental conditions: read-out: sAg EC50; HepG2.2.15 cells; HBsAg in supernatant at day 6 after exposure to compound; 0.5% DMSO
Parameter: log10(EC50) (log10 of the value in nM)
Note: values are log10 of EC50 expressed in nM.

Here are 8 compounds together with their reported answers.
> print(dat)
                                   compound  recorded.number
1  Cc1c(C2CC2c2cnc(-c3ncccn3)nc2)ccc(Cl)c1OCC1CC1 (single isomer, unassigned) [Example 62]             4.69
2  CO[C@H]1CCN(c2cc(C3CC3c3cnc(-c4ncccn4)nc3)ccc2F)C1 (single isomer, unassigned) [Example 67]             2.26
3  CS(=O)(=O)N1CCN(c2cc(C3CC3c3cnc(-c4ncccn4)nc3)ccc2F)CC1 (single isomer, unassigned) [Example 42]             2.34
4  COCCCOc1cc(F)c(Cl)cc1C1CC1c1cnc(-c2ncccn2)nc1 (single isomer, unassigned) [Example 154]             2.48
5  COc1cc(C2CC2c2ccc(-c3ncccn3)nc2)cc(F)c1F (single isomer, unassigned) [Example 124]             2.46
6  CO[C@H]1CCN(c2cc(C3CC3c3cnc(-c4ncccn4)nc3)cc(F)c2F)C1 (single isomer, unassigned) [Example 103]             0.90
7  COc1cc(C2CC2c2cnc(-c3ncccn3)nc2)cc(OC)c1F (single isomer, unassigned) [Example 146]             2.04
8  COc1cc(C2CC2c2cnc(-c3ncccn3)nc2C(C)C)ccc1F (single isomer, unassigned) [Example 75]             3.30

Batch lookup, log10(EC50) per entry.
1. COc1ccc(C2CC2c2cnc(-c3ncccn3)nc2)cc1F (single isomer, unassigned) [Example 13]
2. COCCCOc1cc(C2CC2c2cnc(-c3ncccn3)nc2)cc(F)c1F (single isomer, unassigned) [Example 130]
3. CN1CCN(c2cc(C3CC3c3cnc(-c4ncccn4)nc3)ccc2F)CC1 (single isomer, unassigned) [Example 188]
4. CC(=O)N1CC[C@@H](Nc2cc(C3CC3c3cnc(-c4ncccn4)nc3)cc(F)c2F)C1 (single isomer, unassigned) [Example 227]
5. COc1cc(C2CC2c2cnc(-c3ncccn3)nc2)c(-c2ccccc2)cc1Cl (single isomer, unassigned) [Example 158]
6. Clc1ccc(C2CC2c2cnc(-c3ncccn3)nc2)cc1N1CCCC1 (single isomer, unassigned) [Example 200]
7. O[C@H]1CCN(c2cc(C3CC3c3cnc(-c4ncccn4)nc3)ccc2F)C1 (single isomer, unassigned) [Example 65]

1.91
2.41
3.60
2.43
3.48
1.76
2.76

Hello, I would appreciate it if you could give log10(EC50) for each entry below.
1. CN1CCN(c2cc(C3CC3c3cnc(-c4ncccn4)nc3)ccc2F)CC1 (single isomer, unassigned) [Example 187]
2. Fc1cc(C2CC2c2cnc(-c3ncccn3)nc2)cc(O[C@H]2CCOC2)c1F (single isomer, unassigned) [Example 250]
3. COc1cc(C2CC2c2cnc(-c3ncccn3)c3ccccc23)ccc1F (single isomer, unassigned) [Example 194]
4. Fc1c(Cl)cc(C2CC2c2cnc(-c3ncccn3)nc2)cc1N1CCCC1 (single isomer, unassigned) [Example 108]
5. Fc1ccc(C2CC2c2cnc(-c3ncccn3)nc2)cc1Cl (single isomer, unassigned) [Example 29]
6. COc1c(Cl)ccc(C2CC2c2cnc(-c3ncccn3)nc2)c1F (single isomer, unassigned) [Example 55]

4.18
1.88
4.69
1.89
2.89
3.00

---

Assignment: determine reported EC50 for the given compounds.
# Tested on: HBsAg
# Measurement notes: HBsAg assay: inhibition of HBsAg in HepG2.2.15 cells (chemiluminescence immunoassay of supernatant)
# Assay type: cell-based, hepatitis B virus
# Experimental conditions: read-out: sAg EC50; HepG2.2.15 cells; HBsAg in supernatant at day 6 after exposure to compound; 0.5% DMSO
One number for each entry, in nM.

Worked examples follow.
> print(dat)
                                   compound  parameter  recorded.number
1  O[C@H]1CCN(c2cc(C3CC3c3cnc(-c4ncccn4)nc3)cc(F)c2F)C1 (single isomer, unassigned) [Example 106]       EC50               85
2  Fc1cc(Cl)cc(C2CC2c2cnc(-c3ncccn3)nc2)c1 (single isomer, unassigned) [Example 118]       EC50             2000
3  COc1cc(C2CC2c2cnc(-c3ncccn3)nc2)cc(F)c1Cl (single isomer, unassigned) [Example 46]       EC50               35

Record EC50 for all entries; do not skip any.
1. Fc1cc(C2CC2c2cnc(-c3ncccn3)nc2)cc(OCC2CC2)c1F (single isomer, unassigned) [Example 129]
2. CC(=O)N1CC[C@H](Nc2cc(C3CC3c3cnc(-c4ncccn4)nc3)cc(F)c2F)C1 (single isomer, unassigned) [Example 225]
3. COCCCn1ncc2c(C3CC3c3cnc(-c4ncccn4)nc3)cc(F)c(F)c21 (single isomer, unassigned) [Example 266]
4. CC(=O)N1CC[C@H](Nc2cc(C3CC3c3cnc(-c4ncccn4)nc3)cc(F)c2F)C1 (single isomer, unassigned) [Example 224]

18
350
2
5000

Would you be so kind as to report EC50 for each listed record?
1. Cc1c(C2CC2c2cnc(-c3ncccn3)nc2)ccc(Cl)c1OCC1CC1 (single isomer, unassigned) [Example 61]
2. CO[C@H]1CCN(c2cc(C3CC3c3cnc(-c4ncccn4)nc3)ccc2F)C1 (single isomer, unassigned) [Example 68]
3. CO[C@@H]1CCN(c2cc(C3CC3c3cnc(-c4ncccn4)nc3)cc(F)c2F)C1 (single isomer, unassigned) [Example 97]
4. COc1c(Cl)ccc(C2CC2c2cnc(-c3ncccn3)nc2)c1Cl (single isomer, unassigned)
5. COc1cc(C2CC2c2cnc(-c3ncccn3)nc2)cc(Cl)c1Cl (single isomer, unassigned) [Example 60]
6. COC1CN(c2cc([C@@H]3C[C@H]3c3cnc(-c4ncccn4)nc3)cc(F)c2F)C1 (single isomer, unassigned) [Example 122]
7. O[C@H]1CCN(c2cc(C3CC3c3cnc(-c4ncccn4)nc3)ccc2F)C1 (single isomer, unassigned) [Example 66]

1. 430
2. 85
3. 14
4. 130
5. 250
6. 61
7. 230

Provide each entry's EC50 from the list below.
1. COc1cc(C2CC2c2cnc(-c3ncccn3)nc2C)ccc1F (single isomer, unassigned)
2. Fc1cc(C2CC2c2cnc(-c3ncccn3)nc2)cc(OCC2CC2)c1F (single isomer, unassigned) [Example 128]
3. Fc1cc(C2CC2c2cnc(-c3ncccn3)nc2)cc(NC2CCCC2)c1F (single isomer, unassigned) [Example 208]
4. O[C@H]1CCN(c2cc(C3CC3c3cnc(-c4ncccn4)nc3)cc(F)c2F)C1 (single isomer, unassigned) [Example 107]
5. COC1CN(c2cc(C3CC3c3cnc(-c4ncccn4)nc3)ccc2F)C1 (single isomer, unassigned) [Example 48]
6. COc1cc(C2CC2c2cnc(-c3ncccn3)nc2)cnc1OC (single isomer, unassigned)
7. COc1cc(C2CC2c2cnc(-c3ncccn3)nc2)c(Cl)cc1Cl (single isomer, unassigned) [Example 88]
8. Oc1cnn(-c2cc(C3CC3c3cnc(-c4ncccn4)nc3)cc(F)c2F)c1 (single isomer, unassigned) [Example 260]

890
420
110
21
32
1100
84
670

Go through the items and report each one's EC50.
1. CN1CC[C@H](Nc2cc(C3CC3c3cnc(-c4ncccn4)nc3)cc(F)c2F)C1 (single isomer, unassigned) [Example 229]
2. COc1cc(C2CC2c2cnc(-c3ncccn3)nc2)cc(N2CCCC2)c1F (single isomer, unassigned) [Example 100]
3. Fc1cc(C2CC2c2cnc(-c3ncccn3)nc2)cc(O[C@@H]2CCOC2)c1F (single isomer, unassigned) [Example 247]
4. CO[C@@H]1CCN(c2cc(C3CC3c3cnc(-c4ncccn4)nc3)cc(F)c2F)C1 (single isomer, unassigned) [Example 96]
5. COc1cc(C2CC2c2cnc(-c3ncccn3)nc2)cc(C)c1F (single isomer, unassigned) [Example 151]

[3000, 61, 76, 93, 81]
